// provenance: patent US10611733B2

test system: WNV; assay: WNV antiviral assay; type: cell-based, West Nile Virus; details: read-out: TC50 (the source's name)
assay-readout: CC50

> print(dat)
                               given.smiles  observed.measurement
1  O=C(CSc1nc2ccccc2c(=O)n1-c1ccc(Cl)c(Cl)c1)Nc1ccc2c(c1)CCC2              ≥ 100 µM
2  O=C(CSc1nc2ccccc2c(=O)n1-c1ccc(Cl)c(Br)c1)Nc1ccc2c(c1)CCC2              ≥ 100 µM
3  Cc1cc(-n2c(SCC(=O)Nc3ccc4c(c3)CCC4)nc3ccccc3c2=O)ccc1Cl          50 to 100 µM
4  O=C(CSc1nc2ccccc2c(=O)n1-c1cc(Cl)cc(Cl)c1)Nc1ccc2c(c1)CCC2              ≥ 100 µM
5  O=C(CSc1nc2ccccc2c(=O)n1-c1cc(F)cc(F)c1)Nc1ccc2c(c1)CCC2              ≥ 100 µM
6  O=C(CSc1nc2ccccc2c(=O)n1-c1c(Cl)cccc1Cl)Nc1ccc2c(c1)CCC2              ≥ 100 µM

----------
tested on: HCV Con 1b (Replicon); experiment: HCV Con 1b (Replicon) RNA end-point; assay type: cell-based, Hepatitis C Virus; conditions: Hepatitis C virus; HCV Con 1b replicon, RNA end-point
assay-readout: IC50

> print(dat)
                                   compound  observed.measurement
1  O=C(CSc1nc2ccccc2c(=O)n1-c1ccccc1)Nc1ccc2c(c1)CCC2 [Example C1]            5 to 25 µM

----------
Below: a set of entries, each annotated with reported pIC50.
target: HCV Con1b (Replicon); experiment: HCV Con1b (Replicon) Luciferase end-point; type: cell-based, Hepatitis C Virus
pIC50: −log10 of the molar value.
assay-readout: pIC50

> print(dat)
                               given.smiles  observed.measurement
1  O=C(CSc1nc2ccccc2c(=O)n1-c1ccc(Cl)c(Cl)c1)Nc1nc(-c2ccccc2)cs1                > 6.00
2  Cc1csc(NC(=O)CSc2nc3ccccc3c(=O)n2-c2ccc(Cl)c(Cl)c2)n1          5.30 to 6.00
3  O=C(CSc1nc2ccccc2c(=O)n1-c1ccc(Cl)c(Cl)c1)Nc1ccc2scnc2c1          5.30 to 6.00
4  COc1cccc2c(=O)n(-c3ccccc3)c(SCC(=O)Nc3ccc4c(c3)CCC4)nc12          5.30 to 6.00

----------
tested on: HCV Con1b (Replicon); experiment: HCV Con1b (Replicon) Luciferase end-point; format: cell-based, Hepatitis C Virus; conditions: read-out: TC50 (the source's name)
assay-readout: CC50

> print(dat)
                                   compound  observed.measurement
1  O=C(CSc1nc2cccc(F)c2c(=O)n1-c1ccccc1)NC1CCCc2ccccc21 (stereo not shown)              ≥ 100 µM
2  O=C(CSc1nc2ccccc2c(=O)n1-c1ccc(F)c(Cl)c1)Nc1ccc2c(c1)OCO2              ≥ 100 µM
3  O=C(CSc1nc2cccc(F)c2c(=O)n1-c1cc(F)c(F)c(F)c1)Nc1ccc2c(c1)CCC2          50 to 100 µM
4  O=C(CSc1nc2ccccc2c(=O)n1-c1ccc(F)c(Cl)c1)Nc1ccc2c(c1)CCC2              ≥ 100 µM
